Provenance of the data: PubChem BioAssay (Tox21)

Test: qHTS assay to identify small molecule agonists of the TGF-beta/Smad signaling pathway (AID 1346859)
Settings: SBE-bla HEK293T, TGF-beta/Smad beta-lactamase reporter, 5 h; series mostly up to 76.8 µM
Records with an inconclusive call do not appear. Active and inactive are the calls of the source. Calls follow the shape of the dose curve; as a rule, active = well fitted activation curve with a large enough effect in the signal ratio in the repeat runs (not every such curve was filed as active); inconclusive = weak or mixed curves; inactive = flat fitted curve, though single readings scatter; the % refers to the signal ratio.
measurement-label: activation

The cases that follow already have their activation on record.
O=C(CBr)Nc1ccc(Cl)cc1C(=O)c1ccccc1F = inactive
CCCCCCCCOC(=O)c1ccc(C(=O)OCCCCCCCC)c(C(=O)OCCCCCCCC)c1 = inactive
CC(c1ccc(O)cc1)(c1ccc(O)cc1)c1ccc(O)cc1 = inactive
O=[N+]([O-])c1cc(C(F)(F)F)cc([N+](=O)[O-])c1Cl = inactive
OCCCBr = inactive

# context switch: different molecule, same activation
Fill blank: measured activation of the molecule COP(=S)(OC)Oc1ccc([N+](=O)[O-])cc1Cl is ____.
inactive
